# Test system: LPESG (Abz-LPESGK(Dnp)-CONH2)
# Procedure Details: In vitro sortase kinetics HPLC assay, LPESG substrate
# Assay type: biochemical
# Details: 1 mM 4S (LPESG) substrate; read-out: Km, GGG
Reported Endpoint: Km

Recorded Km (molecule 4S.6A: 5mut + N98D A104V A118S F122A K134G I182V E189V (protein) QAKPQIPKDKSKVAGYIEIPDADIKEPVYPGPATREQLDRGVSFVEENESLDDQNISISGHTAIDRPNYQFTNLGAAKKGSMVYFKVGNETRKYKMTSIRNVKPTAVEVLDEQKGKDKQLTLVTCDDYNVETGVWETRKIFVATEVK ): 4.95 mM

Entry source: patent US10202593B2
